Assay Remarks: Pharmacokinetics in rats after single iv, po or sc dose (plasma and brain)
Type: in vivo, Sprague-Dawley rats
Test Context: male, Sprague-Dawley, rat, brain, po, 10 mg/kg, rat brain, PO 10.0 mg eq./kg; read-out: Observed Cmax
Method: Sprague Dawley (SD) rats (138 adult males), and C57Bl/6 mice (140 adult males), were obtained (Hilltop Laboratories, Scottsdale, PA); 123 per species were used in the study and the remainder provided blank matrix. […] The area under the plasma concentration versus time curve (AUC) was calculated using the linear trapezoidal method (linear interpolation). […] Concentrations of memantine in rat and mouse plasma and brain were determined using an LC-MS/MS assay developed at ABC Laboratories.
Measurement Name: Cmax (µM)
Write the number in µM without appending the unit.

Requested read-out: Cmax. Entry: CC12CC3CC(C)(C1)CC(N)(C3)C2 [memantine]
25.4

* * *

Assay Remarks: Pharmacokinetics in rats after single iv, po or sc dose (plasma and brain)
Type: in vivo, Sprague-Dawley rats
Test Context: male, Sprague-Dawley, rat, brain, oral, subcutaneous, summary for rats and mice; rat; read-out: brain elimination half-lives after extravascular administrations
Measurement Name: half-life

# lookup: half-life of CC12CC3CC(C)(C1)CC(N)(C3)C2 [memantine]
2.3 to 3.8 h

* * *

Assay Remarks: Bidirectional Caco permeability
Type: in vitro ADME
Test Context: human, Caco-2, pH 7.4; 10 μM, pH7.4, 1 h; read-out: Caco Permeability BtoA
Measurement Name: Papp B→A at 1 h, 10 μM (×10⁻⁶ cm/s)
Your answer is read as ×10⁻⁶ cm/s, so omit the unit and give the number.

Report Papp B→A at 1 h, 10 μM for CC12CC3CC(C)(C1)CC(N)(C3)C2 [memantine] please.
47

* * *

Assay Remarks: Pharmacokinetics in rats after single iv, po or sc dose (plasma and brain)
Format: in vivo, Sprague-Dawley rats
Test Context: male, Sprague-Dawley, rat, plasma, sc, 10 mg/kg, rat plasma, SC 10.0 mg eq./kg; read-out: Observed Cmax
Experimental: Sprague Dawley (SD) rats (138 adult males), and C57Bl/6 mice (140 adult males), were obtained (Hilltop Laboratories, Scottsdale, PA); 123 per species were used in the study and the remainder provided blank matrix. […] The area under the plasma concentration versus time curve (AUC) was calculated using the linear trapezoidal method (linear interpolation). […] Concentrations of memantine in rat and mouse plasma and brain were determined using an LC-MS/MS assay developed at ABC Laboratories.
Measurement Name: Cmax
Write the numeric value and follow it with the unit.

Bench note: what Cmax did CC12CC3CC(C)(C1)CC(N)(C3)C2 [memantine] show?
6.19 µM

* * *

Assay Remarks: in vivo
Test Context: male, C57Bl/6, mouse, elimination half-life
Measurement Name: half-life

Fill in: half-life of CC12CC3CC(C)(C1)CC(N)(C3)C2 [memantine] is ___
3 to 4 h

* * *

Assay Remarks: Pharmacokinetics in rats after single iv, po or sc dose (plasma and brain)
Type: in vivo, Sprague-Dawley rats
Test Context: male, Sprague-Dawley, plasma, po; rat, dose 1 mg/kg, cross-species summary; read-out: T max
Procedure: Sprague Dawley (SD) rats (138 adult males), and C57Bl/6 mice (140 adult males), were obtained (Hilltop Laboratories, Scottsdale, PA); 123 per species were used in the study and the remainder provided blank matrix. […] The area under the plasma concentration versus time curve (AUC) was calculated using the linear trapezoidal method (linear interpolation). […] Concentrations of memantine in rat and mouse plasma and brain were determined using an LC-MS/MS assay developed at ABC Laboratories.
Measurement Name: Tmax (h)
Write down the numeric answer in h and omit the unit.

// Tmax lookup, key: CC12CC3CC(C)(C1)CC(N)(C3)C2 [memantine]
1

* * *

Assay Remarks: Pharmacokinetics in rats after single iv, po or sc dose (plasma and brain)
Assay type: in vivo, Sprague-Dawley rats
Test Context: male, Sprague-Dawley, rat, brain, po, 10 mg/kg, rat brain, PO 10.0 mg eq./kg; read-out: AUC(0-∞)
Measurement Name: AUC(0-inf)

Reported AUC(0-inf) for CC12CC3CC(C)(C1)CC(N)(C3)C2 [memantine] : what is it?
256 µM·h

* * *

Assay Remarks: Pharmacokinetics in rats after single iv, po or sc dose (plasma and brain)
Assay type: in vivo, Sprague-Dawley rats
Test Context: male, Sprague-Dawley, plasma; rat, dose 10 mg/kg, cross-species summary; read-out: T max
Measurement Name: Tmax

Looking for the measured Tmax of CC12CC3CC(C)(C1)CC(N)(C3)C2 [memantine] , can you help?
30 to 60 min

* * *

Assay Remarks: in vivo
Test Context: male, C57Bl/6, mouse, po, 1 mg/kg, Half-life (t½)
Measurement Name: half-life (h)
Reply numerically in h, unit not repeated.

Item CC12CC3CC(C)(C1)CC(N)(C3)C2 [memantine] has what recorded half-life?
1.86

* * *

Assay Remarks: in vivo
Test Context: male, C57Bl/6, mouse, po, 10 mg/kg
Measurement Name: bioavailability (%)
Only the number, expressed in %, is required.

Value lookup for bioavailability; key = CC12CC3CC(C)(C1)CC(N)(C3)C2 [memantine]
125

* * *

Assay Remarks: in vivo
Test Context: male, C57Bl/6, mouse, brain elimination half-lives after extravascular administrations
Measurement Name: half-life

So what's the measured half-life for this one? CC12CC3CC(C)(C1)CC(N)(C3)C2 [memantine]
2.16 to 3.05 h

* * *

Assay Remarks: Pharmacokinetics in rats after single iv, po or sc dose (plasma and brain)
Assay type: in vivo, Sprague-Dawley rats
Test Context: male, Sprague-Dawley, 1.22 mg/kg; rat plasma, IV 1.22 mg eq./kg
Method: Sprague Dawley (SD) rats (138 adult males), and C57Bl/6 mice (140 adult males), were obtained (Hilltop Laboratories, Scottsdale, PA); 123 per species were used in the study and the remainder provided blank matrix. […] The area under the plasma concentration versus time curve (AUC) was calculated using the linear trapezoidal method (linear interpolation). […] Concentrations of memantine in rat and mouse plasma and brain were determined using an LC-MS/MS assay developed at ABC Laboratories.
Measurement Name: AUC(0-t) (µM·h)
# number only, unit µM·h dropped from output

Query: AUC(0-t); subject: CC12CC3CC(C)(C1)CC(N)(C3)C2 [memantine]
1.57

* * *

Assay Remarks: in vivo
Test Context: male, C57Bl/6, mouse, Tmax after extravascular administration
Measurement Name: Tmax

Tmax for CC12CC3CC(C)(C1)CC(N)(C3)C2 [memantine] ?
15 to 30 min

* * *

Assay Remarks: Pharmacokinetics in rats after single iv, po or sc dose (plasma and brain)
Assay type: in vivo, Sprague-Dawley rats
Test Context: male, Sprague-Dawley, rat, plasma, po, 1 mg/kg, rat, dose 1 mg/kg, single dose in solution; read-out: C max
Measurement Name: Cmax (nM)
Give the number; nM is assumed, so skip it.

Returns the measured Cmax for the input compound. Input: CC12CC3CC(C)(C1)CC(N)(C3)C2 [memantine]
100

* * *

Assay Remarks: Human pharmacokinetics (literature)
Format: in vivo
Test Context: plasma, oral, 10 mg, estimated, read-out: Cl p (converted)
Measurement Name: clearance (mL/min/kg)
Numbers only here, please. The scale is mL/min/kg.

What does the data say about its clearance? Entry: CC12CC3CC(C)(C1)CC(N)(C3)C2 [memantine]
2.67

* * *

Assay Remarks: in vivo
Test Context: male, C57Bl/6, mouse, sc, 1 mg/kg, Observed Cmax
Measurement Name: Cmax (µM)
Report only the number, with the unit µM understood.

# lookup: Cmax of CC12CC3CC(C)(C1)CC(N)(C3)C2 [memantine]
5.36

* * *

Assay Remarks: Pharmacokinetics in rats after single iv, po or sc dose (plasma and brain)
Format: in vivo, Sprague-Dawley rats
Test Context: male, Sprague-Dawley, rat, brain, sc, 10 mg/kg, rat brain, SC 10.0 mg eq./kg; read-out: Observed Cmax
Measurement Name: Cmax (µM)
Just the number please, in µM, no unit attached.

Which value of Cmax has been reported for CC12CC3CC(C)(C1)CC(N)(C3)C2 [memantine] in the records?
75.4

* * *

Assay Remarks: Pharmacokinetics in rats after single iv, po or sc dose (plasma and brain)
Type: in vivo, Sprague-Dawley rats
Test Context: male, Sprague-Dawley, rat, plasma, po, 10 mg/kg, rat, dose 10 mg/kg, single dose in solution; read-out: C max
Measurement Name: Cmax (µM)
# unit: µM | format: bare number

What Cmax value was documented for this compound, CC12CC3CC(C)(C1)CC(N)(C3)C2 [memantine] ?
3.7

* * *

Assay Remarks: Pharmacokinetics in rats after single iv, po or sc dose (plasma and brain)
Assay type: in vivo, Sprague-Dawley rats
Test Context: male, Sprague-Dawley, 1 mg/kg; rat plasma, SC 1.0 mg eq./kg
Measurement Name: AUC(0-t) (µM·h)
Dear colleague, please return just the value in µM·h, with no unit written.

Recorded AUC(0-t) for CC12CC3CC(C)(C1)CC(N)(C3)C2 [memantine] , please?
1.62

* * *

Assay Remarks: in vivo
Test Context: male, C57Bl/6, mouse, po, 1 mg/kg, AUC inf
Measurement Name: AUC(0-inf) (µM·h)
Give a bare numeral; the unit µM·h is implied.

Name the recorded AUC(0-inf) for CC12CC3CC(C)(C1)CC(N)(C3)C2 [memantine] .
1.2
